molecular target: mouse TGR5 receptor (Mus musculus, UniProt Q80SS6); construct: host or cells: HEK293-EBNA (293 c18, ATCC CRL10852); assay: Mouse TGR5 luminescent cAMP production assay (HEK293-EBNA cells, DiscoveRx cAMP XS+ kit); type: cell-based; conditions: HEK293-EBNA cells overexpressing mouse TGR5, luminescent cAMP assay; read-out: Mouse TGR5 Lum. cAMP Activity (EC50)
Sequence (Q80SS6 whole entry): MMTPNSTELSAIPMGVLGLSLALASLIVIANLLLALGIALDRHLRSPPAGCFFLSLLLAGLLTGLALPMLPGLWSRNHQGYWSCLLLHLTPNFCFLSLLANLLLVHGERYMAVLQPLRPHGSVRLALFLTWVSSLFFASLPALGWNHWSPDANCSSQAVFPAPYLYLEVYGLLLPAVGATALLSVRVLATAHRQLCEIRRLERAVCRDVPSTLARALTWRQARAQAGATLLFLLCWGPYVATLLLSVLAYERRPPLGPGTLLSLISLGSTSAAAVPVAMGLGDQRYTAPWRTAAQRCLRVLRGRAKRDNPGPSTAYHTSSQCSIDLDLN
pEC50: −log10 of the molar value.
TEST_READOUT: pEC50

Observe how each entry below is paired with its result.
In [3]: df
Out[3]:
                                   compound        result
0  COCCOc1cc(N2CCC[C@H]2C(=O)NCCc2ccc(C(F)(F)F)cc2)nc(C(F)(F)F)n1  6.00 to 7.00
1  COCC(=O)N1CCN(c2cc(N3CCC[C@@H](C(=O)NCCc4ccc(C(F)(F)F)cc4)C3)nc(C(F)(F)F)n2)CC1        > 7.00
2  N#Cc1ccc(CCNC(=O)[C@@H]2CCN2c2cc(-c3ccccn3)nc(C(F)(F)F)n2)cc1  6.00 to 7.00

INPUT: Reported pEC50, compound N#Cc1ccc(CCNC(=O)[C@@H]2CCCN2c2cc(-c3ccco3)nc(C(F)(F)F)n2)cc1 : ____
OUTPUT: 6.00 to 7.00

INPUT: Reported pEC50, compound Cc1ccc(-c2cc(N3CCC[C@H]3C(=O)NCCc3ccc(C#N)cc3)nc(C(F)(F)F)n2)o1 : ____
OUTPUT: 6.00 to 7.00

INPUT: Reported pEC50, compound N#Cc1ccc(CCNC(=O)C2CCN2c2cc(-c3ccncc3)nc(C(F)(F)F)n2)cc1 (stereo not shown) : ____
OUTPUT: > 7.00

INPUT: Reported pEC50, compound COc1cnccc1-c1cc(N2CCC[C@H]2C(=O)NCCc2ccc(C#N)cc2)nc(C(F)(F)F)n1 : ____
OUTPUT: > 7.00

INPUT: Reported pEC50, compound CC(=O)NCC1CCN(c2cc(N3CCC[C@H]3C(=O)NCCc3ccc(C#N)cc3)nc(C(F)(F)F)n2)CC1 : ____
OUTPUT: > 7.00

These data points were gathered from patent US10654834B2.
